- Assay text: soluble on expression in E. coli; label from the status in PepcDB or PDB records
Measured metric: soluble on expression in E. coli

Residue sequence	Result
MDVIKIGDIVARKSYQCDLLFRVIDIKEKNGEWEAILYGEDVRLVADAPCSDLVVIDEQEQQERKKREIELLEQSYRLFRQDYQAIKQKVEYRATGGYRVEKDFFQIPGRVLHLDGDPLYLRKCMDLYERIGVPVHGIYCEESEMPEKVGYWIEQFRPDILVITGHDSYSKSKGKVHELKAYRHSRHFVQTVKEARKKVPHLDQLIIFAGACQSHFESLIRAGANFASSPARVNIHALDPVYIVSRLSFTPFTETVDVWDVLRNTLTGEKGLGGVETKGVLRTGMPFRLIEDREENRRS	not soluble
MGSDKIHHHHHHMARARTQYKCRSCGYISASYLGRCPNCGAWNQFEKESQEVRQTSTKATPSRLMASVGAKEAVKMSTVKAEKEERVLTKSSELNRVLGGGIVPGSLVLIGGDPGIGKSTLMLQIMSELAEKYKVLYVSGEESASQIKLRADRLGLGQSPMLLYPESNMEHIRDQIDDVKPDFVVIDSIQTMNEPSLDSMVGSASQVREVTAELMKIAKLDQVTVFVIGHVTKEGSIAGPKILEHMVDTVLYFEGDEHHAYRILHSVKNRFGAANEIGMFEMKTEGLAEVTNPSAVFLDERLPDSTGSAVVVSLEGTRPIL	not soluble
MLIGMSNQTVNQAVSSGVKASPHRFNRFEIKYLITEQDVPALREQLATRMSTDPLSPPGGYRVESLYFDSADLRCYTEKIEGLKFRRKLRIRTYGDGVLTPESTVSVEIKQRVNKVTQKRRLDLPFIYALALGDSTGAAVGEQVDVEKLLEISPENQHALIHEMASFAKNYRLRPIATTKYHREAFVGADAEESSRVTIDHGVSGRDRDFLLGQDLEDRPTVAQGLAVVEIKCDERVPFWLTDMTAQLEMSVIRMSKYCETIEAFHNRPASAFGAVDPIFLEHHHHHH	soluble
MQEKSKMDCHGGISGTIYEYGALTIDGEEYIPFKQYAGKYVLFVNVASYGGLTGQYIELNALQEELAPFGLVILGFPCNQFGKQEPGENSEILPTLKYVRPGGGFVPNFQLFEKGDVNGEKEQKFYTFLKNSCPPTSELLGTSDRLFWEPMKVHDIRWNFEKFLVGPDGIPIMRWHHRTTVSNVKMDILSYMRRQAALGVAENLYFQ	soluble
MLSRTLRPISKVLRSSAKYSQAAGLPLNEGSPAPLPSEDRAISAKVSSLVEEIANLSLLDVSDLNWALKKRLNIPDQPLMAAAAAAPAAQAEAEAASDVPQKMTFTVKLTKFDDTKKIAIIKEIRNAIPGLNLVQAKKFVETAPVNVKEDLGKAEADELKAILEKAGATIEIV	not soluble
MGSDKIHHHHHHMLVLNNLQKKFTNSKMVLNNVNAKFRSGSINCIVGVNGAGKTTLLNIISSILMPTKGDVYLNSESIFENSTLKKEIFYTPVNPFFYENLSAKDNLYLICSLYNRKIDQITIEKTIKDVGLNIEDLNIPVYNFSSGMKQKLNFASMLLVDSNVLLLDEPFNALDHVAQKNFTRILKGLVSKEKIIIFTSHLPNTILELSENIYLLKDGCFTDKRKAQSFNQTTLETWLLESQKEVIPYEEK	not soluble
GPGSMIGAPWPPEAVFGNTVDRVASPAPVPERKISIADQLHLPLSRFVEKMSWGEKRRVQILHGMLYPATVYLLDECSTDIDVAERRTVLELVRQECEAKDGCCVYATHIFDGIEGWATHLLLMEGGRVVDFKAVEKLTLPLEDYALQFMSKRAHAARGVDGVAAASLSHGSSAAISTTS	soluble
MSLDKNDVVKKILESKKYENLDSDIVEKVVSISEKKYKLKEVENYSKKKLHQIWGSYYSAYPNWDKLLKKYNQGQLSIEDLLKIHSSTNERVATLNDFYTYVFGNIKHVSSILDFGCGFNPLALYQWNENEKIIYHAYDIDRAEIAFLSSIIGKLKTTIKYRFLNKESDVYKGTYDVVFLLKMLPVLKQQDVNILDFLQLFHTQNFVISFPIKSLSGKEKGMEENYQLWFESFTKGWIKILDSKVIGNELVYITSGFQKEGHHHHHH	soluble
MNDSTCPRPCLMKLDLQSSTNKLAFLKDNWPSFGQIESIDRLSETELRCTLCLLDVVLAALAKDECFCPNREIIRLVLTRTYVQNRCELCETEEIRSKLMKGFCTWEKKNGLSRKNEIRRRGISVFYGAILRMLSKVNGKQE	not soluble
TDQGSTGIYYISIEGLVYPIRLEKEYINSFSLSPDEQHFIASVTKPDRPSELYSIPLGQEEKQLTGANDKFVREHTISIPEEIQYATEDGVMVNGWLMRPAQMEGETTYPLILNIHGGPHMMYGHTYFHEFQVLAAKGYAVVYINPRGSHGYGQEFVNAVRGDYGGKDYDDVMQAVDEAIKRDPHIDPKRLGVTGGSYGGFMTNWIVGQTNRFKAAVTQRSISNWISFHGVSDIGYFFTDWQLEHDMFEDTEKLWDRSPLKYAANVETPLLILHGERDDRCPIEQAEQLFIALKKMGKETKLVRFPNASHNLSRTGHPRQRIKRLNYISSWFDQHL	not soluble

# lookup: soluble on expression in E. coli of "MQARQPTVAPFDTAKLDRLMEEAGIDVIAATSKHNTQYLMGGYKFIFFAAMDAIGHSRYLPMVIYEKGAPDHSAYVGNRMEGAEHQNNPFWTPAVHTATWGTQDAAGLAVEHLKKIGKASGRIGIEPAFLPSDARDLLASRLDGARFVDATHVLERLRAVKTADELAKLRRASELITDSMLATIAAARAGSTKLEIIEQLRREETNRGLHFEYCLLTLGASHNRAGSPQAWAEGEILSIDSGGNYHGYIGDLCRMGVLGEPDAELEDLLAEVERIQQAAFAKVRAGVLGSEMIVAAEAELKASPSAAFTDFFCHGMGLITHEAPFLMTNHPVAYEGIDADKPLEAGNVISVETTMLHPKRGFIKLEDTLAITDKGYEMFGDRGRGWNRGGVLEHHHHHH"
not soluble
